- measured-on: T1, EsCas13d, nuclease-dead (Eubacterium siraeum, UniProt B0MS50, R295A;H300A;R849A;H854A)
- T1 sequence: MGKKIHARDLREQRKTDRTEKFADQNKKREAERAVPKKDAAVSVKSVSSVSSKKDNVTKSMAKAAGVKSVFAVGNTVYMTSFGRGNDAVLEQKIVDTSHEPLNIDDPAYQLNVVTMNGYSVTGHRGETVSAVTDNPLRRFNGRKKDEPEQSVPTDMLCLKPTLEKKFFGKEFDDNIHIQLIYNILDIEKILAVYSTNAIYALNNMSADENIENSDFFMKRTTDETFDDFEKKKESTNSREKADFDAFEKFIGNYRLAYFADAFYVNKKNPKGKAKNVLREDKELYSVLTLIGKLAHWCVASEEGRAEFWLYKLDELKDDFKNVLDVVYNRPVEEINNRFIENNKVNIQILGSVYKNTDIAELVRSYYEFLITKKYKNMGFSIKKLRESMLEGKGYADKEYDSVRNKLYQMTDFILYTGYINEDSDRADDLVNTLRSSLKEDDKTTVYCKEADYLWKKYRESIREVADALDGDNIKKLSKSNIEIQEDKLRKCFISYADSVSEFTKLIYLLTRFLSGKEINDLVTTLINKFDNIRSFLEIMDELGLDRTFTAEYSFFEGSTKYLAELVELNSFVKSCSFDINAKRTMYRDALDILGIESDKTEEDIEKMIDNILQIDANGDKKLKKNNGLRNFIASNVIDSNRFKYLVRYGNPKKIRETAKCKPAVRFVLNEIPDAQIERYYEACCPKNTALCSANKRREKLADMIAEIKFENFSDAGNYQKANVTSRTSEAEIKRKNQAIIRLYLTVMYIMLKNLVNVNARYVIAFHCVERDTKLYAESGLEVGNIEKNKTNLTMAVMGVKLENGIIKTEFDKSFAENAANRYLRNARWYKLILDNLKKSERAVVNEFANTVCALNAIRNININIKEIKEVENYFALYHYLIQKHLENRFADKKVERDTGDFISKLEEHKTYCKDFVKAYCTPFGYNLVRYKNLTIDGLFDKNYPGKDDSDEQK
- experiment-summary: crRNA (strand 1, pre-loaded); Mg2+; 40 mM Tris-HCl pH 7.5, 150 mM NaCl, 6 mM MgCl2, 1 mM DTT, 0.1% Tween-20, 0.2 mg/ml BSA; 25 C; 10 min per concentration, then washed
- details: tags: His6-TwinStrep-SUMO cleaved; N-terminal SNAP kept (SNAP-Surface 488); label: 3' end held by stalled T7 RNA polymerase
pKd: −log10 of the molar value.
Measured pKd, listed per entry for reference.

>  <binder>
target 1 MT 5'PFS CUA 3'PFS UGA (mixed) RNA 1: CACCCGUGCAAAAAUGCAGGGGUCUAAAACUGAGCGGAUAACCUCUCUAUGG RNA 2: GGGAAUGGAUCCACAUCUACGAAUUCCUACCAUAGAGAGGUUAUCCGCUCAUGAAGAUCGGAAGAGCACACGU

>  <pKd>
7.66

$$$$
>  <binder>
target 1 insC 3' of 20,insU 3' of 7 (mixed) RNA 1: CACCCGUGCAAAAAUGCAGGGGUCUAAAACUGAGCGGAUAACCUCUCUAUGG RNA 2: GGGAAUGGAUCCACAUCUACGAAUUCGUACCACUAGAGAGGUUAUCUCGCUCACCGAGAUCGGAAGAGCACACGU

>  <pKd>
7.88

$$$$
>  <binder>
target 1 del5,del7 (mixed) RNA 1: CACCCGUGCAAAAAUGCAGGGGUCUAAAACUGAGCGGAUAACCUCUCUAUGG RNA 2: GGGAAUGGAUCCACAUCUACGAAUUCGUACCAUAGAGAGGUUAUCCUCACCGAGAUCGGAAGAGCACACGU

>  <pKd>
7.86

$$$$
